Ref: patent US20260176254A1

TEST SYSTEM: recombinant human PSMA (rhPSMA) (Homo sapiens)
Sequence (Q04609 whole entry): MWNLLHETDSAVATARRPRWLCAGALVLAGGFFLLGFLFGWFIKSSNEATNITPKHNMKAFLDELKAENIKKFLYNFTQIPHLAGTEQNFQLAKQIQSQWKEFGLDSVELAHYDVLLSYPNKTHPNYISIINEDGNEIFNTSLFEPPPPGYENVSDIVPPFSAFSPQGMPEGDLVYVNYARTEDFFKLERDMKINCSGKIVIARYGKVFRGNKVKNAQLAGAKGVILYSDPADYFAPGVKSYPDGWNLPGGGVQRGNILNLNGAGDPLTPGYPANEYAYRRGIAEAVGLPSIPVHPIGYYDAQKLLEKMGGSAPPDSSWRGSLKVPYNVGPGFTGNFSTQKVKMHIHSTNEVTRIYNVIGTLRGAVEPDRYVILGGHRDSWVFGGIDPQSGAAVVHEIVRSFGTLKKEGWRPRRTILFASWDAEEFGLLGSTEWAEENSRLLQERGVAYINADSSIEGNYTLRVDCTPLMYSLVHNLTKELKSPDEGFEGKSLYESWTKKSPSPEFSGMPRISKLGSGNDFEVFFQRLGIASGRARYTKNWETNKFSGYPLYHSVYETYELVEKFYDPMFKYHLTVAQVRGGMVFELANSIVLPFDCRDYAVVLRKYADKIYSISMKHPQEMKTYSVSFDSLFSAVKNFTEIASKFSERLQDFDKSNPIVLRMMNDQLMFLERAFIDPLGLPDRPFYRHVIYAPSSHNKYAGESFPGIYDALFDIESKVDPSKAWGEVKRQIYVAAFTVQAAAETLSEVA
ASSAY REMARKS: Naaladase assay (fluorescence-based Naaladase activity inhibition)
PARTICULARS: rhPSMA 0.4 μg/mL, substrate N-Acetyl-Asp-Glu 40 μM, 37° C. one hour
Protocol: Naaladase activity inhibition was determined using a fluorescence-based assay. […] The reaction solutions were loaded onto a 96-well flat clear bottom black microplates (Corning) and read at excitation and emission wavelengths of 330 and 450 nm, respectively, using a microplate reader (Tecan). The data were analyzed by a one-site total binding regression algorithm of GraphPad Prism (GraphPad Software).
ENDPOINT: IC50 (nM)
Could you give me the number in nM? Just the number is fine.

Worked set:
{"COMPOUND": "NC(=O)CN1CCN(CC(=O)O)CCN(CC(=O)NC23CCC(Nc4c(N[C@@H](Cc5c6ccccc6cc6ccccc56)C(=O)NCCCC[C@H](NC(=O)N[C@@H](CNC(=O)C(=O)O)C(=O)O)C(=O)O)c(=O)c4=O)(CC2)CC3)CCN(CC(=O)O)CC1", "ENDPOINT": "IC50", "OBSERVED MEASUREMENT": 3.5}
{"COMPOUND": "O=C(O)CC[C@H](NC(=O)N[C@@H](CCCCNC(=O)[C@H](Cc1ccc2ccccc2c1)Nc1c(Nc2ccc3c(c2)CCN(C(=O)CN2CCN(CC(=O)O)CCN(CC(=O)O)CCN(CC(=O)O)CC2)C3)c(=O)c1=O)C(=O)O)C(=O)O", "ENDPOINT": "IC50", "OBSERVED MEASUREMENT": 3}
{"COMPOUND": "O=C(O)CCC[C@H](NC(=O)N[C@@H](CCNC(=O)[C@H](Cc1c2ccccc2cc2ccccc12)NC(=O)[C@H]1CC[C@H](CNC(=O)CN2CCN(CC(=O)O)CCN(CC(=O)O)CCN(CC(=O)O)CC2)CC1)C(=O)O)C(=O)O [HTK03149, reference compound]", "ENDPOINT": "IC50", "OBSERVED MEASUREMENT": 1.6}

Now let's try a different one.
Form: item O=C(O)CC[C@H](NC(=O)N[C@@H](CCCCNC(=O)[C@H](Cc1ccc2ccccc2c1)Nc1c(NC23CCC(c4nnc(CN5CCN(CC(=O)O)CCN(CC(=O)O)CCN(CC(=O)O)CC5)o4)(CC2)CC3)c(=O)c1=O)C(=O)O)C(=O)O ; test system recombinant human PSMA (rhPSMA) (Homo sapiens); IC50: 2.1

---

Each entry below lists one item and its recorded IC50 value.
TEST SYSTEM: recombinant human PSMA (rhPSMA) (Homo sapiens)
ASSAY REMARKS: Naaladase assay (fluorescence-based Naaladase activity inhibition)
PARTICULARS: rhPSMA 0.4 μg/mL, substrate N-Acetyl-Asp-Glu 40 μM, 37° C. one hour
Could you give me the number in nM? Just the number is fine.

Worked set:
{"COMPOUND": "O=C(O)CN1CCN(CC(=O)O)CCN(Cc2nnc(C34CCC(Nc5c(N[C@@H](Cc6c7ccccc7cc7ccccc67)C(=O)NCCCC[C@H](NC(=O)N[C@@H](CNC(=O)C(=O)O)C(=O)O)C(=O)O)c(=O)c5=O)(CC3)CC4)o2)CCN(CC(=O)O)CC1", "TEST SYSTEM": "recombinant human PSMA (rhPSMA) (Homo sapiens)", "IC50, nM": 1}
{"COMPOUND": "NC(=O)CN1CCN(CC(=O)O)CCN(Cc2nnc(C34CCC(Nc5c(N[C@@H](Cc6c7ccccc7cc7ccccc67)C(=O)NCCCC[C@H](NC(=O)N[C@@H](CCCC(=O)O)C(=O)O)C(=O)O)c(=O)c5=O)(CC3)CC4)o2)CCN(CC(=O)O)CC1", "TEST SYSTEM": "recombinant human PSMA (rhPSMA) (Homo sapiens)", "IC50, nM": 1.8}
{"COMPOUND": "O=C(O)CC[C@H](NC(=O)N[C@@H](CCCCNC(=O)[C@H](Cc1c2ccccc2cc2ccccc12)Nc1c(NC23CCC(NC(=O)CN4CCN(CC(=O)O)CCN(CC(=O)O)CCN(CC(=O)O)CC4)(CC2)CC3)c(=O)c1=O)C(=O)O)C(=O)O", "TEST SYSTEM": "recombinant human PSMA (rhPSMA) (Homo sapiens)", "IC50, nM": 0.8}
{"COMPOUND": "O=C(O)CC[C@H](NC(=O)N[C@@H](CCCCNC(=O)C(Cc1ccc2ccccc2c1)Nc1nnc(C23CCC(CNC(=O)CN4CCN(CC(=O)O)CCN(CC(=O)O)CCN(CC(=O)O)CC4)(CC2)CC3)o1)C(=O)O)C(=O)O (single isomer, unassigned) [E18]", "TEST SYSTEM": "recombinant human PSMA (rhPSMA) (Homo sapiens)", "IC50, nM": 3.7}

Now let's try a different one.
Lab book: IC50 of O=C(O)CC[C@H](NC(=O)N[C@@H](CCCCNC(=O)C(Cc1ccc2ccccc2c1)Nc1nnc(C23CCC(CNC(=O)CN4CCN(CC(=O)O)CCN(CC(=O)O)CCN(CC(=O)O)CC4)(CC2)CC3)o1)C(=O)O)C(=O)O (single isomer, unassigned) [E17] noted as 3.5
